Measured Percent Conjugation (%) of MTX, irradiation time 100 h, listed per entry.
Experiment: Photostability test in glass vials not shielded from light: gelation, molecular weight, percent conjugation of MTX (Example 4(2))
Assay type: physicochemical
Conditions: additive 1 mg/ml; 4000 Lux, 25° C., not shielded from light
Report as a plain number; the unit % is understood.

>  <MOLECULE>
O=C([O-])CS.[Na+] [Na thioglycolate, sodium thioglycolate]

>  <RESULT_NUMBER>
1.4

$$$$
>  <MOLECULE>
COC(=O)c1ccc(O)cc1 [Methyl paraben, methyl p-hydroxybenzoate]

>  <RESULT_NUMBER>
2.0

$$$$
>  <MOLECULE>
CC(=O)N[C@@H](Cc1c[nH]c2ccccc12)C(=O)O

>  <RESULT_NUMBER>
2.2

$$$$

Then this molecule:
So for N[C@@H](Cc1c[nH]c2ccccc12)C(=O)O , the logged Percent Conjugation (%) of MTX, irradiation time 100 h turned out to be 2.2

###

Experiment: Photostability test with additional light-shielding film LUMICOOL 1905 (Example 6)
Format: physicochemical
Details: additive 1 mg/mL; vial wrapped with LUMICOOL 1905
Listed here are compounds together with their documented Molecular weight (×10^4), irradiation time 300 h.

>  <COMPOUND>
N[C@@H](Cc1c[nH]c2ccccc12)C(=O)O [Tryptophan, tryptophan]

>  <RESULT>
153 ×10^4

$$$$
>  <COMPOUND>
O=S([O-])([O-])=S.[Na+].[Na+] [Na thiosulfate, sodium thiosulfate]

>  <RESULT>
180 ×10^4

$$$$
>  <COMPOUND>
O=C([O-])CS.[Na+] [Na thioglycolate, sodium thioglycolate]

>  <RESULT>
44 ×10^4

$$$$

In plain terms, CC(=O)N[C@@H](Cc1c[nH]c2ccccc12)C(=O)O [N-acetyltryptophan] has a documented Molecular weight (×10^4), irradiation time 300 h of 136 ×10^4

Form field Molecular weight (×10^4), irradiation time 300 h, entry O=C([O-])c1ccccc1O.[Na+] [Na salicylate, sodium salicylate] : 163 ×10^4

Sure, the documented Molecular weight (×10^4), irradiation time 300 h for COC(=O)c1ccc(O)cc1 [Methyl paraben, methyl p-hydroxybenzoate] is 179 ×10^4

###

Assay: Photostability test in glass vials not shielded from light: gelation, molecular weight, percent conjugation of MTX (Example 4(2))
Assay type: physicochemical
Settings: additive 1 mg/ml; 4000 Lux, 25° C., not shielded from light
OBSERVATION_TYPE: Molecular weight (×10^4), irradiation time 150 h

Documented Molecular weight (×10^4), irradiation time 150 h of CC(=O)N[C@@H](Cc1c[nH]c2ccccc12)C(=O)O [N-acetyltryptophan] : 128 ×10^4

Entry under test: COC(=O)c1ccc(O)cc1 [Methyl paraben, methyl p-hydroxybenzoate] . Its Molecular weight (×10^4), irradiation time 150 h was 126 ×10^4

Value of measured Molecular weight (×10^4), irradiation time 150 h for the entry N[C@@H](Cc1c[nH]c2ccccc12)C(=O)O [Tryptophan, tryptophan] : 83 ×10^4

Molecular weight (×10^4), irradiation time 150 h measured on O=C([O-])CS.[Na+] [Na thioglycolate, sodium thioglycolate] = 5 ×10^4

###

Assay: Photostability test with additional light-shielding film LUMICOOL 1905 (Example 6)
Format: physicochemical
Details: additive 1 mg/mL; vial wrapped with LUMICOOL 1905
OBSERVATION_TYPE: Molecular weight (×10^4), irradiation time 0 h

# example entries with known answers
>  <COMPOUND>
O=S([O-])([O-])=S.[Na+].[Na+] [Na thiosulfate, sodium thiosulfate]

>  <RESULT>
181 ×10^4

$$$$
>  <COMPOUND>
O=C([O-])CS.[Na+] [Na thioglycolate, sodium thioglycolate]

>  <RESULT>
163 ×10^4

$$$$
>  <COMPOUND>
COC(=O)c1ccc(O)cc1 [Methyl paraben, methyl p-hydroxybenzoate]

>  <RESULT>
187 ×10^4

$$$$
>  <COMPOUND>
CC(=O)N[C@@H](Cc1c[nH]c2ccccc12)C(=O)O

>  <RESULT>
178 ×10^4

$$$$
>  <COMPOUND>
O=C([O-])c1ccccc1O.[Na+] [Na salicylate, sodium salicylate]

>  <RESULT>
186 ×10^4

$$$$

// switching to the query compound
Entry N[C@@H](Cc1c[nH]c2ccccc12)C(=O)O , Molecular weight (×10^4), irradiation time 0 h reported as 188 ×10^4

###

Test: Photostability test in glass vials not shielded from light: gelation, molecular weight, percent conjugation of MTX (Example 4(2))
Format: physicochemical
Conditions: additive 1 mg/ml; 4000 Lux, 25° C., not shielded from light
Each entry below carries its reported Percent Conjugation (%) of MTX, irradiation time 0 h.
# output: bare number, implied unit %

Known Percent Conjugation (%) of MTX, irradiation time 0 h results, listed for orientation:
>  <MOLECULE>
COC(=O)c1ccc(O)cc1 [Methyl paraben, methyl p-hydroxybenzoate]

>  <RESULT_UNIT>
%

>  <RESULT_NUMBER>
2.2

$$$$
>  <MOLECULE>
N[C@@H](Cc1c[nH]c2ccccc12)C(=O)O [Tryptophan, tryptophan]

>  <RESULT_UNIT>
%

>  <RESULT_NUMBER>
2.2

$$$$
>  <MOLECULE>
O=C([O-])CS.[Na+] [Na thioglycolate, sodium thioglycolate]

>  <RESULT_UNIT>
%

>  <RESULT_NUMBER>
2.1

$$$$

Now look at this entry.
Per the record, CC(=O)N[C@@H](Cc1c[nH]c2ccccc12)C(=O)O [N-acetyltryptophan] has Percent Conjugation (%) of MTX, irradiation time 0 h of 2.2

###

Experiment: Photostability test in glass vials not shielded from light: gelation, molecular weight, percent conjugation of MTX (Example 4(2))
Type: physicochemical
Settings: additive 1 mg/ml; 4000 Lux, 25° C., not shielded from light
OBSERVATION_TYPE: Percent Conjugation (%) of MTX, irradiation time 150 h
Answer with a number only, understood to be in %.

>  <MOLECULE>
COC(=O)c1ccc(O)cc1 [Methyl paraben, methyl p-hydroxybenzoate]

>  <RESULT_NUMBER>
2.1

$$$$
>  <MOLECULE>
CC(=O)N[C@@H](Cc1c[nH]c2ccccc12)C(=O)O [N-acetyltryptophan]

>  <RESULT_NUMBER>
2.1

$$$$
>  <MOLECULE>
N[C@@H](Cc1c[nH]c2ccccc12)C(=O)O [Tryptophan, tryptophan]

>  <RESULT_NUMBER>
2.1

$$$$

Next item in the queue.
Reported Percent Conjugation (%) of MTX, irradiation time 150 h of O=C([O-])CS.[Na+] [Na thioglycolate, sodium thioglycolate] : 1.0

###

Assay: Photostability test in glass vials not shielded from light: gelation, molecular weight, percent conjugation of MTX (Example 4(2))
Type: physicochemical
Conditions: additive 1 mg/ml; 4000 Lux, 25° C., not shielded from light
Each record here notes measured Molecular weight (×10^4), irradiation time 300 h.

Illustrative cases are given below, each with its answer.
>  <MOLECULE>
N[C@@H](Cc1c[nH]c2ccccc12)C(=O)O [Tryptophan, tryptophan]

>  <RESULT>
45 ×10^4

$$$$
>  <MOLECULE>
CC(=O)N[C@@H](Cc1c[nH]c2ccccc12)C(=O)O [N-acetyltryptophan]

>  <RESULT>
78 ×10^4

$$$$
>  <MOLECULE>
COC(=O)c1ccc(O)cc1 [Methyl paraben, methyl p-hydroxybenzoate]

>  <RESULT>
65 ×10^4

$$$$

Here is another molecule to look at.
The molecule listed as O=C([O-])CS.[Na+] [Na thioglycolate, sodium thioglycolate] shows Molecular weight (×10^4), irradiation time 300 h equal to 2 ×10^4

###

Reported Molecular weight (×10^4), irradiation time 150 h values are given for each entry in this list.
Experiment: Photostability test with additional light-shielding film LUMICOOL 1905 (Example 6);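 note: molecular weight and drug conjugation percentage of the test conjugate, both determined by the method given for the first production procedure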
Type: physicochemical
Settings: additive 10 mg/mL; vial wrapped with LUMICOOL 1905

Recorded Molecular weight (×10^4), irradiation time 150 h, per entry:
>  <MOLECULE>
O=C([O-])CS.[Na+] [Na thioglycolate, sodium thioglycolate]

>  <RESULT>
170 ×10^4

$$$$
>  <MOLECULE>
O=S([O-])([O-])=S.[Na+].[Na+] [Na thiosulfate, sodium thiosulfate]

>  <RESULT>
188 ×10^4

$$$$
>  <MOLECULE>
O=C([O-])c1ccccc1O.[Na+] [Na salicylate, sodium salicylate]

>  <RESULT>
190 ×10^4

$$$$

In plain terms, N[C@@H](Cc1c[nH]c2ccccc12)C(=O)O [Tryptophan, tryptophan] has a documented Molecular weight (×10^4), irradiation time 150 h of 177 ×10^4

Note to self: Molecular weight (×10^4), irradiation time 150 h recorded for CC(=O)N[C@@H](Cc1c[nH]c2ccccc12)C(=O)O [N-acetyltryptophan] was 186 ×10^4
